target: Sodium-dependent noradrenaline transporter (Homo sapiens); test: DRUGMATRIX: Norepinephrine Transporter radioligand binding (ligand: [125I] RTI-55); format: cell membranes, MDCK, Membrane; details: mdck; Not Active = under 50% inhibition at 10 µM
Sequence (P23975 whole entry): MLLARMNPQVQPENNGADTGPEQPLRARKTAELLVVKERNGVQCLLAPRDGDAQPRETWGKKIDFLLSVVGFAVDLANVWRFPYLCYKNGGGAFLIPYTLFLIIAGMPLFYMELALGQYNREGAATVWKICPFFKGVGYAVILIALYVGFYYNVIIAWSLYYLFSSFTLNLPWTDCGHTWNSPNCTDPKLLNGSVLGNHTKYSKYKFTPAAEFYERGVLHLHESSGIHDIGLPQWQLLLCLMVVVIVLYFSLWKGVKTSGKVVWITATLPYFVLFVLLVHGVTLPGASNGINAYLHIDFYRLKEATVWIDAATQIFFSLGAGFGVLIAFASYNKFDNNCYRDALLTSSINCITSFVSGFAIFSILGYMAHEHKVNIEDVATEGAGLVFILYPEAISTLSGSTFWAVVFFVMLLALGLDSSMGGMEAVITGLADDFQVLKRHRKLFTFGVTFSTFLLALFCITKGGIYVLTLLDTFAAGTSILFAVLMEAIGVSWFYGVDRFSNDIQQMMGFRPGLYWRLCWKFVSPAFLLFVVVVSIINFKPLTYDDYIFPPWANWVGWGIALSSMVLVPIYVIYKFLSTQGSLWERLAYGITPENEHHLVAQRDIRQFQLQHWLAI
metric: IC50

>  <molecule>
CN1[C@@H]2CC[C@H]1C[C@@H](OC(=O)c1c[nH]c3ccccc13)C2

>  <IC50>
Not Active

$$$$
>  <molecule>
CCOC(=O)[C@H](CCc1ccccc1)N[C@@H](C)C(=O)N1[C@H](C(=O)O)C[C@@H]2CCC[C@@H]21

>  <IC50>
Not Active

$$$$
>  <molecule>
Oc1cccc2cccnc12

>  <IC50>
Not Active

$$$$
>  <molecule>
O=C1CCc2cc(OCCCCc3nnnn3C3CCCCC3)ccc2N1

>  <IC50>
Not Active

$$$$
>  <molecule>
CCc1cccc2c3c([nH]c12)C(CC)(CC(=O)O)OCC3 (centres undefined)

>  <IC50>
Not Active

$$$$
>  <molecule>
CC(=O)[C@H]1CC[C@H]2[C@@H]3CCC4=CC(=O)CC[C@]4(C)[C@H]3CC[C@]12C

>  <IC50>
Not Active

$$$$

Here's the next entry for you.
Query block: Param readout= IC50; system= Sodium-dependent noradrenaline transporter (Homo sapiens); entry= COc1c(C)c2c(c(O)c1C/C=C(\C)CCC(=O)OCCN1CCOCC1)C(=O)OC2 [MYCOPHENOLATE MOFETIL] ; returns value.
Result block: Not Active
